Collected viability, T/C values appear next to each entry.
test system: 429239-143-T-J1-PDC complex spheroid viability; experiment: Anticancer human tumor 429239-143-T-J1-PDC patient-derived small cell lung carcinoma cell line growth inhibition [POLQ]; conditions: second compound 1 µM; first compound 0.316 µM; stronger effect = lower value

Here's what some known entries look like.
>>> result("C=CCn1c(=O)c2cnc(Nc3ccc(N4CCN(C)CC4)cc3)nc2n1-c1cccc(C(C)(C)O)n1 + Cc1cccc(N(C)C(=O)C2C(O)CCN2c2nc(C)cc(C(F)(F)F)c2C#N)c1")
"89.6%"
>>> result("CNCc1ccc(-c2[nH]c3cc(F)cc4c3c2CCNC4=O)cc1 + COC1C(OC(N)=O)C(O)C(Oc2ccc3c(O)c(NC(=O)c4ccc(O)c(CC=C(C)C)c4)c(=O)oc3c2C)OC1(C)C")
"79.3%"
>>> result("Nc1ccn(C2OC(CO)C(O)C2(F)F)c(=O)n1 (stereo not given) + Cc1cccc(N(C)C(=O)C2C(O)CCN2c2nc(C)cc(C(F)(F)F)c2C#N)c1")
"18.2%"
>>> result("C#Cc1c(F)ccc2cc(O)cc(-c3ncc4c(N5CC6CCC(C5)N6)nc(OCC56CCCN5CC(F)C6)nc4c3F)c12 (stereo not given) + COC1C(OC(N)=O)C(O)C(Oc2ccc3c(O)c(NC(=O)c4ccc(O)c(CC=C(C)C)c4)c(=O)oc3c2C)OC1(C)C")
"96%"

## Task Form: Entry = C#Cc1c(F)ccc2cc(O)cc(-c3ncc4c(N5CC6CCC(C5)N6)nc(OCC56CCCN5CC(F)C6)nc4c3F)c12 (stereo not given) + Cc1cccc(N(C)C(=O)C2C(O)CCN2c2nc(C)cc(C(F)(F)F)c2C#N)c1 | System = 429239-143-T-J1-PDC complex spheroid viability | viability, T/C = ____
## Result 105%

====

tested on: 429239-143-T-J1-PDC complex spheroid viability; test: Anticancer human tumor 429239-143-T-J1-PDC cell line growth inhibition [POLQ]; conditions: second compound 3.16 µM; first compound 0.1 µM; stronger effect = lower value;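 note: luminescence signal used as surrogate measure of viable cells; spheroids exposed to compounds for seven days before readout; 100% = DMSO vehicle control viability as luminescence relative to vehicle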
Recorded viability, T/C for the following compounds
Your answer is read as %, so omit the unit and give the number.

>>> result_number("COc1cccc(OCCCN)c1-c1cc(Nc2cnc(C#N)cn2)n[nH]1 + Cc1cccc(N(C)C(=O)C2C(O)CCN2c2nc(C)cc(C(F)(F)F)c2C#N)c1")
65.4

## Task Return reported viability, T/C; argument: COc1cc2cc(C(=O)CCC(=O)O)sc2cc1OC + Nc1ccc(C#CCN(C(=O)Cc2ncc(C(F)(F)F)cc2C(F)(F)F)c2ccc(F)cc2)nn1
## Result 107

## Task Given the entry CC1COCCN1c1cc(C2(O)CC3CCC(C2)O3)c2cnn(-c3ccn[nH]3)c2n1 (stereo not given) + COC1C(OC(N)=O)C(O)C(Oc2ccc3c(O)c(NC(=O)c4ccc(O)c(CC=C(C)C)c4)c(=O)oc3c2C)OC1(C)C , report its measured viability, T/C.
## Result 31.6

## Task Given the entry COc1ccc([C@@H](O)c2cc(-c3ncnc4cc(N5CCOCC5)ccc34)c(F)cc2Cl)nn1 + Nc1ccc(C#CCN(C(=O)Cc2ncc(C(F)(F)F)cc2C(F)(F)F)c2ccc(F)cc2)nn1 , report its measured viability, T/C.
## Result 102

## Task Give the measured viability, T/C of C=CCn1c(=O)c2cnc(Nc3ccc(N4CCN(C)CC4)cc3)nc2n1-c1cccc(C(C)(C)O)n1 + Cc1cccc(N(C)C(=O)C2C(O)CCN2c2nc(C)cc(C(F)(F)F)c2C#N)c1 .
## Result 111

// data source = PubChem BioAssay AID1963845
